Measured Ki values are reported for all entries that follow.
- targetEntity: receptor 5-HT4(b) (Homo sapiens, UniProt Q13639)
- Construct: The entire coding region of the cDNAs of 5-HT4(a), 5-HT4(b), 5-HT4(c) and 5-T4(d) was subcloned; expressed in transfected cells; host or cells: COS-7 cells, transient, pRC/CMV vector; cDNA amplified from human brain and ileum RNA
- Sequence (Q13639 whole entry): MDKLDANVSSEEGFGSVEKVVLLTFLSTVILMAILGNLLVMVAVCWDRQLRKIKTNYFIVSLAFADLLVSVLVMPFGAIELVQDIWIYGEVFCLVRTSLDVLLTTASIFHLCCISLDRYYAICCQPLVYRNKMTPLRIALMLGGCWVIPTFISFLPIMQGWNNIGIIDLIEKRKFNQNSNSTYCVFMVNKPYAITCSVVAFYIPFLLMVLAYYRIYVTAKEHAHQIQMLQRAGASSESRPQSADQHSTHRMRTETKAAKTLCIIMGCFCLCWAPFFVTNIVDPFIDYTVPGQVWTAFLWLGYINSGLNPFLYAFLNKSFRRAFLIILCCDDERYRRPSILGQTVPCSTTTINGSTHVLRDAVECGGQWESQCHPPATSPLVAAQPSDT
- measurementNotes: [3H]GR113808 radioligand binding, membranes of transiently transfected COS-7 cells
- runConditions: read-out: Ki, competition for [3H]GR113808 binding
Where a name gives a salt, the structure may show the parent alone.
Report as a plain number; the unit µM is understood.

In [3]: df
Out[3]:
                                   compound                              targetentity  testresult
0  COc1cc(N)c(Cl)cc1C(=O)OCCN1C[C@H](C)C[C@H](C)C1  receptor 5-HT4(b) (Homo sapiens, UniProt Q13639)     0.00162

Now for the compound whose Ki we want.
Kindly state the measured Ki obtained for COc1cc(N)c(Cl)cc1C(=O)NC1CN2CCC1CC2 (centres unmarked) [Zacopride, hydrochloride] with receptor 5-HT4(b) (Homo sapiens, UniProt Q13639).
11.5
